Origin of the recorded values: the supplement of paper PMC4862054

Recorded normalised viability for the following molecules
- Test system: MDA-MB-468
- measurement-protocol: normalised viability (% of control), CellTiter-Blue; higher = more viable cells (about 100 = DMSO control)
- assay-conditions: 10000 nM; incubation time: 72 h
measurement-kind: normalised viability (%)

molecule	measurement-kind	data-value
CN(C)/N=N/c1[nH]cnc1C(N)=O [Dacarbazine]	normalised viability	88.8
C=C(c1ccc(C(=O)O)cc1)c1cc2c(cc1C)C(C)(C)CCC2(C)C [Bexarotene]	normalised viability	110
CN[C@@H]1C[C@H]2O[C@@](C)([C@@H]1OC)n1c3ccccc3c3c4c(c5c6ccccc6n2c5c31)C(=O)N[C@H]4O [UCN-01]	normalised viability	6.64
C[C@]12CC[C@@H]3c4ccc(O)cc4C[C@@H](CCCCCCCCC[S+]([O-])CCCC(F)(F)C(F)(F)F)[C@H]3[C@@H]1CC[C@@H]2O (stereo partly specified) [Fulvestrant]	normalised viability	83.6
CC(C)Cn1cnc2c(N)nc3ccccc3c21 [Imiquimod]	normalised viability	107
Cc1ccc(-n2nc(C(C)(C)C)cc2NC(=O)Nc2ccc(OCCN3CCOCC3)c3ccccc23)cc1 [Doramapimod]	normalised viability	119
O=P1(NCCCl)OCCCN1CCCl (stereo unspecified) [Ifosfamide]	normalised viability	103
CNCc1ccc(-c2[nH]c3cc(F)cc4c3c2CCNC4=O)cc1 [Rucaparib]	normalised viability	77.5
N.N.[Cl][Pt][Cl] [Cisplatin]	normalised viability	106
CCC1(c2ccc(N)cc2)CCC(=O)NC1=O (stereo unspecified) [Aminoglutethimide]	normalised viability	110
CC1(C)NC(=O)N(c2ccc([N+](=O)[O-])c(C(F)(F)F)c2)C1=O [Nilutamide]	normalised viability	103

====

- System: CAL-51
- measurement-protocol: drug sensitivity score (DSS), CellTiter-Blue viability (DSS (AUC-based score)); higher = stronger viability inhibition; extreme values may be limits of the assay
- assay-conditions: incubation time: 72 h
measurement-kind: drug sensitivity score

compound	data-value
CCC1(c2ccc(N)cc2)CCC(=O)NC1=O (stereo unspecified) [Aminoglutethimide]	0
Cc1ccc(C(=O)Nc2ccc(CN3CCN(C)CC3)c(C(F)(F)F)c2)cc1C#Cc1cnc2cccnn12 [Ponatinib]	3.79
O=C1CCC(N2C(=O)c3ccccc3C2=O)C(=O)N1 (stereo unspecified) [Thalidomide]	0
Cc1ccc(-n2nc(C(C)(C)C)cc2NC(=O)Nc2ccc(OCCN3CCOCC3)c3ccccc23)cc1 [Doramapimod]	0
N[C@@H](CSC(c1ccccc1)(c1ccccc1)c1ccccc1)C(=O)O [S-trityl-L-cysteine]	0
C[C@@H](Oc1cc(-c2cnn(C3CCNCC3)c2)cnc1N)c1c(Cl)ccc(F)c1Cl [Crizotinib]	4.08
CC1(C)NC(=O)N(c2ccc([N+](=O)[O-])c(C(F)(F)F)c2)C1=O [Nilutamide]	0
CN(N=O)C(=O)N[C@@H](C=O)[C@@H](O)[C@H](O)[C@H](O)CO [Streptozocin]	0
CO[C@H]1/C=C\C=C(/C)C(=O)NC2=CC(=O)C(NCCN(C)C)=C(C[C@@H](C)C[C@H](OC)[C@H](O)[C@@H](C)/C=C(\C)[C@@H]1OC(N)=O)C2=O [Alvespimycin]	14
C=C(c1ccc(C(=O)O)cc1)c1cc2c(cc1C)C(C)(C)CCC2(C)C [Bexarotene]	0
C[C@]12CC[C@@H]3c4ccc(O)cc4C[C@@H](CCCCCCCCC[S+]([O-])CCCC(F)(F)C(F)(F)F)[C@H]3[C@@H]1CC[C@@H]2O (stereo partly specified) [Fulvestrant]	0

====

- Tested on: MFM-223
- measurement-protocol: normalised viability (% of control), CellTiter-Blue; higher = more viable cells (about 100 = DMSO control)
- assay-conditions: 100 nM; incubation time: 72 h
Reported normalised viability values for the following compounds.
measurement-kind: normalised viability (%)

item-smiles	unit-descriptor	data-value
Cc1ccc(-n2nc(C(C)(C)C)cc2NC(=O)Nc2ccc(OCCN3CCOCC3)c3ccccc23)cc1	%	109
CCC1=C[C@@H]2CN(C1)Cc1c([nH]c3ccccc13)[C@@](C(=O)OC)(c1cc3c(cc1OC)N(C)[C@H]1[C@@](O)(C(=O)OC)[C@H](OC(C)=O)[C@]4(CC)C=CCN5CC[C@]31[C@@H]54)C2	%	49.1
Cn1c(CCCC(=O)O)nc2cc(N(CCCl)CCCl)ccc21	%	102

====

- Tested on: Hs578T
- measurement-protocol: drug sensitivity score (DSS), CellTiter-Blue viability (DSS (AUC-based score)); higher = stronger viability inhibition; extreme values may be limits of the assay
- assay-conditions: incubation time: 72 h

compound	drug sensitivity score
CC1(C)NC(=O)N(c2ccc([N+](=O)[O-])c(C(F)(F)F)c2)C1=O [Nilutamide]	0
Cn1c(CCCC(=O)O)nc2cc(N(CCCl)CCCl)ccc21 [Bendamustine]	0
COc1cc([C@@H]2c3cc4c(cc3[C@@H](O[C@@H]3O[C@@H]5CO[C@@H](C)O[C@H]5[C@H](O)[C@H]3O)[C@H]3COC(=O)[C@H]23)OCO4)cc(OC)c1O [Etoposide]	5.23
C#Cc1cccc(Nc2ncnc3cc(OCCOC)c(OCCOC)cc23)c1 [Erlotinib]	0
CCN(CCCOc1ccc2c(Nc3cc(CC(=O)Nc4cccc(F)c4)[nH]n3)ncnc2c1)CCOP(=O)(O)O [Barasertib]	7.48
CN(N=O)C(=O)N[C@@H](C=O)[C@@H](O)[C@H](O)[C@H](O)CO [Streptozocin]	0
CNCc1ccc(-c2[nH]c3cc(F)cc4c3c2CCNC4=O)cc1 [Rucaparib]	0
Cn1c(Nc2ccc(C(F)(F)F)cc2)nc2cc(Oc3ccnc(-c4ncc(C(F)(F)F)[nH]4)c3)ccc21 [RAF265]	1.15

====

- System: HDQ-P1
- measurement-protocol: normalised response (% of control), CellTiter-Glo; higher = more viable cells (100 = DMSO, 0 = benzethonium chloride kill control)
- assay-conditions: incubation time: 72 h
Measured normalised response of individual entries
measurement-kind: normalised response (%)

molecule	measurement-kind	data-value
NC(=O)Nc1cc(-c2cccc(F)c2)sc1C(=O)N[C@H]1CCCNC1 [AZD7762] (10 nM)	normalised response	94
CCC(C)(C)C(=O)O[C@H]1C[C@@H](C)C=C2C=C[C@H](C)[C@H](CC[C@@H]3C[C@@H](O)CC(=O)O3)[C@H]21 [Simvastatin] (100 nM)	normalised response	102
CC(=O)Nc1ccc(C(=O)Nc2ccccc2N)cc1 [Tacedinaline] (10 nM)	normalised response	96.1
Cn1c(Nc2ccc(C(F)(F)F)cc2)nc2cc(Oc3ccnc(-c4ncc(C(F)(F)F)[nH]4)c3)ccc21 [RAF265] (10 nM)	normalised response	99.2
C[C@@H](Oc1cc(-c2cnn(C3CCNCC3)c2)cnc1N)c1c(Cl)ccc(F)c1Cl [Crizotinib] (10 nM)	normalised response	93.6
CN[C@@H]1C[C@H]2O[C@@](C)([C@@H]1OC)n1c3ccccc3c3c4c(c5c6ccccc6n2c5c31)C(=O)N[C@H]4O [UCN-01] (100 nM)	normalised response	68.3
C[C@]12CC[C@@H]3c4ccc(O)cc4C[C@@H](CCCCCCCCC[S+]([O-])CCCC(F)(F)C(F)(F)F)[C@H]3[C@@H]1CC[C@@H]2O (some centres not stated) [Fulvestrant] (10 nM)	normalised response	96.1
Oc1nc(-c2ccc(C(F)(F)F)cc2)nc2c1CSCC2 [XAV-939] (100 nM)	normalised response	106
Cn1c(CCCC(=O)O)nc2cc(N(CCCl)CCCl)ccc21 [Bendamustine] (100 nM)	normalised response	102
C=C(c1ccc(C(=O)O)cc1)c1cc2c(cc1C)C(C)(C)CCC2(C)C [Bexarotene] (100 nM)	normalised response	104
CN(N=O)C(=O)N[C@@H](C=O)[C@@H](O)[C@H](O)[C@H](O)CO [Streptozocin] (100 nM)	normalised response	107
COc1cc2nccc(Oc3ccc(NC(=O)C4(C(=O)Nc5ccc(F)cc5)CC4)cc3)c2cc1OC [Cabozantinib] (10 nM)	normalised response	93.5

====

- System: Hs578T
- measurement-protocol: drug sensitivity score (DSS), CellTox Green (DSS (AUC-based score)); higher = stronger drug effect (viability inhibition or cytotoxicity); extreme values may be limits of the assay
- assay-conditions: incubation time: 72 h
Listed below: drug sensitivity score values for each entry.

compound	drug sensitivity score
CS(=O)(=O)c1ccc(C2=C(c3ccccc3)C(=O)OC2)cc1 [Rofecoxib]	0
CN[C@@H]1C[C@H]2O[C@@](C)([C@@H]1OC)n1c3ccccc3c3c4c(c5c6ccccc6n2c5c31)C(=O)N[C@H]4O [UCN-01]	17.7
O=P1(NCCCl)OCCCN1CCCl (centres undefined) [Ifosfamide]	0
NC(=O)Nc1cc(-c2cccc(F)c2)sc1C(=O)N[C@H]1CCCNC1 [AZD7762]	17.4

====

- System: Hs578T
- measurement-protocol: normalised response (% of control), CellTox Green; higher = less cell death (100 = DMSO, 0 = benzethonium chloride kill control)
- assay-conditions: incubation time: 72 h

compound	normalised response (%)
CCCCCCCCCCCCCCCCCCOP(=O)([O-])OC1CC[N+](C)(C)CC1 [Perifosine] (2500 nM)	128
CCCCCCCCCCCCCCCCCCOP(=O)([O-])OC1CC[N+](C)(C)CC1 [Perifosine] (250 nM)	97.2
CO[C@H]1/C=C\C=C(/C)C(=O)NC2=CC(=O)C(NCCN(C)C)=C(C[C@@H](C)C[C@H](OC)[C@H](O)[C@@H](C)/C=C(\C)[C@@H]1OC(N)=O)C2=O [Alvespimycin] (100 nM)	101
O=C(CCCCCCC(=O)Nc1ccc([C@H]2O[C@@H](CSc3nc(-c4ccccc4)c(-c4ccccc4)o3)C[C@@H](c3ccc(CO)cc3)O2)cc1)NO [Tubacin] (1000 nM)	93.4
CCC1=C[C@@H]2CN(C1)Cc1c([nH]c3ccccc13)[C@@](C(=O)OC)(c1cc3c(cc1OC)N(C)[C@H]1[C@@](O)(C(=O)OC)[C@H](OC(C)=O)[C@]4(CC)C=CCN5CC[C@]31[C@@H]54)C2 [Vinorelbine] (10000 nM)	-16.6
CCCCCCCCCCCCCCCCCCOP(=O)([O-])OC1CC[N+](C)(C)CC1 [Perifosine] (25 nM)	105
